- TEST SUMMARY: Solubility test
- Assay type: physicochemical
- PROTOCOL CONDITIONS: aqueous buffer, thermodynamic from solid; 10 mmol/L glycine buffer (pH 2.0), 5° C., overnight; read-out: Solubility in pH 2.0 buffer
REPORTED ENDPOINT: solubility (µg/mL)
Note: unit µg/mL is implicit; provide only the numeric part.

For CNC(=O)Nc1ccc2c(c1)CC[C@@]21OC(=O)N(CC(=O)N2[C@@H](C)CC[C@H]2c2cc(F)c(F)c(F)c2)C1=O [Comparative Example 2, reference compound] , what is its reported solubility?
4

* * *

- ASSAYED SYSTEM: recombinant p300 (Homo sapiens (Human), UniProt Q09472)
- Sequence (Q09472 whole entry): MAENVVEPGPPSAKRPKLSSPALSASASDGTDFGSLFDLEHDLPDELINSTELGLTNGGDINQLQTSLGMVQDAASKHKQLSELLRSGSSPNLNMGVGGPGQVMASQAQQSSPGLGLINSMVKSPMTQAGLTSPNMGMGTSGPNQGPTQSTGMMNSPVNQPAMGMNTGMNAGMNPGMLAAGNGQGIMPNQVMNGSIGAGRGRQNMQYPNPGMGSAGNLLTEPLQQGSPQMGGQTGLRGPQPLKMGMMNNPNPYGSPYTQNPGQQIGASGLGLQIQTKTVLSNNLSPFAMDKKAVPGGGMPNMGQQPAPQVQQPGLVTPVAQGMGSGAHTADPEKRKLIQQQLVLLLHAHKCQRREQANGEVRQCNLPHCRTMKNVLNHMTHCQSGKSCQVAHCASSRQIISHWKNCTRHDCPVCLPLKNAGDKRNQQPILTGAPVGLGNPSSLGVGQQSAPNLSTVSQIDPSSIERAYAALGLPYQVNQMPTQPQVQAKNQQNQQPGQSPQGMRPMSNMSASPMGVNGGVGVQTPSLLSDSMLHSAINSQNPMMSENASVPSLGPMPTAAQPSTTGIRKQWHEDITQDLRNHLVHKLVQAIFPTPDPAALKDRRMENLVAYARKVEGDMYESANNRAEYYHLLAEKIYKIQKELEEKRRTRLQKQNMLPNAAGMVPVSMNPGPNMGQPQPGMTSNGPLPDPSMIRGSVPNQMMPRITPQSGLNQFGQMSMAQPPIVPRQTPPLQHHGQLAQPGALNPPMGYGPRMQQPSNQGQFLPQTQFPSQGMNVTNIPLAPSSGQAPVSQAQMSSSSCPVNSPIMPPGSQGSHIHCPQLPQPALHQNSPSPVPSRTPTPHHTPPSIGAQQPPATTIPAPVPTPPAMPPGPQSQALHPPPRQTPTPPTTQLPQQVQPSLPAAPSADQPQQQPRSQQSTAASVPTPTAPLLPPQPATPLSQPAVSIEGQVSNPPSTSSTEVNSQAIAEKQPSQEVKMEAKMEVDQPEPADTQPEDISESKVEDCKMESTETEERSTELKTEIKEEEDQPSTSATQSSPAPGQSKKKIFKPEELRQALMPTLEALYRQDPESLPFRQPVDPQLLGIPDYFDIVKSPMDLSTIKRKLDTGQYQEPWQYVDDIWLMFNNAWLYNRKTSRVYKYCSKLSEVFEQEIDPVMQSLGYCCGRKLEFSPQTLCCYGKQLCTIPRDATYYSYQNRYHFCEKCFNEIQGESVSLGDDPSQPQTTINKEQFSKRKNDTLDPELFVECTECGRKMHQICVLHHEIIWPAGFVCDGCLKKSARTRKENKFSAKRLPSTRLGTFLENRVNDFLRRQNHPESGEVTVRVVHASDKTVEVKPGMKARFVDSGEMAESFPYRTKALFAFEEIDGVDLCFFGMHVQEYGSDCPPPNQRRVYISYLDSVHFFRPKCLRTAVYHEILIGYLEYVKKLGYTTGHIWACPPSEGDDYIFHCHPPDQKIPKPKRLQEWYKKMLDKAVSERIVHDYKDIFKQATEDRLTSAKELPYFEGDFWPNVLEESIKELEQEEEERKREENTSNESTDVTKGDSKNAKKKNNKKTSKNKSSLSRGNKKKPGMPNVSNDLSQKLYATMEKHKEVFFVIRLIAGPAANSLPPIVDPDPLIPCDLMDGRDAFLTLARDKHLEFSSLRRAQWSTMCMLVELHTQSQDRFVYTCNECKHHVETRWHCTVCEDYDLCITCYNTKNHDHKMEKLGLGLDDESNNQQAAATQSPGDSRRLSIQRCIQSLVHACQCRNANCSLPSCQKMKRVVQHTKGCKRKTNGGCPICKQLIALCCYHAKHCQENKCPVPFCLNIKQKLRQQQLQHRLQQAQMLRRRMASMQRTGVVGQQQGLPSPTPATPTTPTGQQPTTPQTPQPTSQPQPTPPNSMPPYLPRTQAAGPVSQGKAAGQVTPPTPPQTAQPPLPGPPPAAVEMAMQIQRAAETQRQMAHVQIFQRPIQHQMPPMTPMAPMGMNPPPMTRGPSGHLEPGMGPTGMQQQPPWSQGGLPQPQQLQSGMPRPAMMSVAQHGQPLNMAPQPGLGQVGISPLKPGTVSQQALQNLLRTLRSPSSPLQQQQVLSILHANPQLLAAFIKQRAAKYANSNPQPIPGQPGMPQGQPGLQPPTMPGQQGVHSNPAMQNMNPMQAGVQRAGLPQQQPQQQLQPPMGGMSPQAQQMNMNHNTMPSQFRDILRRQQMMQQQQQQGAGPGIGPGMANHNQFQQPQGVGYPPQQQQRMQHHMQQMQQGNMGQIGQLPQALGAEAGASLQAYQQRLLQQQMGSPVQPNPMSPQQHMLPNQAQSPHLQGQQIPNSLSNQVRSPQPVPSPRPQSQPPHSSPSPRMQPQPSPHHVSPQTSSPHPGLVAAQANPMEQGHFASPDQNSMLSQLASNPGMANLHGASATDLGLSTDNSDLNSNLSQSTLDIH
- TEST SUMMARY: HAT activity inhibition experiment (SensoLyte HAT(p300) Assay Kit)
- PROTOCOL CONDITIONS: recombinant p300, acetyl CoA, histone H3 peptide
Some compounds, each annotated with its measured pIC50.
To interpret pIC50, take it as minus log10 of a concentration measured in moles per litre.

MOL: O=C1N[C@]2(C[C@@H](F)c3cc(-c4cnn(C5CN(C6COC6)C5)c4)ccc32)C(=O)N1CC(=O)N(Cc1ccc(F)cn1)C1(C(F)(F)F)CC(F)(F)C1
ASSAYED SYSTEM: recombinant p300 (Homo sapiens (Human), UniProt Q09472)
pIC50: 9.22

For O=C1N[C@]2(CCc3cc(-c4cnn(C5CN(C6COC6)C5)c4)ccc32)C(=O)N1CC(=O)N(Cc1ccc(F)cn1)C1(C(F)(F)F)CC(F)(F)C1 , what is its reported pIC50?
7.76
